target: T1, HLA-A24 molecule (product of the HLA-A*2402 gene) on C1R-A24 cells (human)
T1 construct: MHC class I molecule on cells; Emptied by acid treatment (pH 3.3, 30 s), then reassociated with added purified beta2m and the test peptide; also called HLA-A*2402 molecule; human HLA-A24 molecule
methodDescription: reassociation on acid-stripped C1R-A24 cells with added beta2m, mAb 17A12 staining, flow cytometry
observationType: -log Kd

Input: Sample DVRDLNALL [HLA-A24-binding peptide of SEQ ID NO 5 (WT1 peptide, SEQ NAME 4)] — what was its -log Kd?
Output: 4.45 -log Kd (Kd in molar concentration)

Input: Also SFIKQEPSW [HLA-A24-binding peptide of SEQ ID NO 6 (WT1 peptide, SEQ NAME 70)] ?
Output: 8.16 -log Kd (Kd in molar concentration)

Input: Also NMTKLQLAL (also called NMTKLQLAL) [HLA-A24-binding peptide of SEQ ID NO 10 (WT1 peptide, SEQ NAME 441)] ?
Output: 6.38 -log Kd (Kd in molar concentration)
